Tested on: A549
Test: NCI tumour cell line growth inhibition, 48 h
Active and inactive are the calls of the source. Rule as the data show it: active = GI50 up to about 1.1 µM and inactive = higher.
Pick from True for active, False for inactive when you respond.

Compound | Tgt | Label
OCCOCn1nc(-c2ccccc2)nc1-c1cnccn1 | A549 | False

// outcome(item) with item = Cc1cccc(NC(=O)C(=O)C(C(=O)c2ccc3ccccc3c2)C2OC(=O)c3ccccc32)c1C (stereo not given) False

// outcome(item) with item = COc1ccc2c(c1)CC1C3(CCCCC23)CC[N+]1(C)C (stereo not given) False

// outcome(item) with item = CC(=O)OCC(OC(C)=O)C(OC(C)=O)C(/C=N\Nc1nc2ccccc2c(=O)[nH]1)=N\Nc1nc2ccccc2c(=O)[nH]1 (stereo not given) False

// outcome(item) with item = `Cc1cc2nc3[nH]nc(N)c3nc2cc1C` False

// outcome(item) with item = `CN1CCN2CCN(C)CCN(CC1)CC2` False

// outcome(item) with item = `COc1ccc(-c2onc(-c3c(C)cc(C)cc3C)c2C2=NCCCN2)cc1` False

// outcome(item) with item = `O=C1C(Cl)=C(NCCCN2CCOCC2)C(=O)c2c(O)ccc(O)c21` False

// outcome(item) with item = `CN1C(=O)N/C(=C\c2ccc(S(=O)(=O)N/N=C/c3ccccc3)cc2)C1=O` False

// outcome(item) with item = CC(OC(=O)C(CC(=O)OC(C)(C)C)NC(=O)OC(C)(C)C)C(=O)OCc1ccccc1 (stereo not given) False

// outcome(item) with item = `Cc1nc2c(O)cc3c4c(n(Cc5ccccc5)c3c2nc1C)C(=O)CCC4` False

// outcome(item) with item = COc1c2c(c(O)c3c4c(c(C)cc13)C1OC3(C(OC)OC5CC(C)(O)C(OC6CC(C)(O)C(O)C(C)O6)C(C)O5)OC1C(OC)(O4)C31CO1)C(=O)C(O)CC2OC1CC(C)(O)C(OC(C)=O)C(C)O1 (stereo not given) True

// outcome(item) with item = CCOC(=O)C1C(=O)CC(C)(O)C(C(=O)OCC)C1c1ccc(OC)cc1 (stereo not given) False

// outcome(item) with item = CCOc1ccccc1NC(=O)C(=O)C1C(=O)Nc2ccccc2[S+]1[O-] (stereo not given) False

// outcome(item) with item = `Cc1cccc(Cl)c1NC(=O)c1cccc([N+](=O)[O-])c1O` False

// outcome(item) with item = `Nc1nc(-c2ccccc2)nc2c1[n+]([O-])c1ccccc1[n+]2[O-]` False

// outcome(item) with item = `CCCCCCCCCCCCCCCCCCNC(=S)N/C=C1\C(=O)Nc2ccccc2C1=O` False

// outcome(item) with item = CCNC1C2(CCCCC2)NC(=O)C12CCCCC2 (stereo not given) False

// outcome(item) with item = CCN1CCC(O)(/C=C/c2ccccc2C)C(C(=O)/C=C/c2ccccc2C)C1 (stereo not given) False

// outcome(item) with item = `Cn1c2c([N+](=O)[O-])cccc2c(=O)c2c(O)cc3c(c21)C=CC(C)(C)O3` False

Where do these numbers come from? They come from ChEMBL document CHEMBL1201862.
